Cited source for all entries: patent US20180334496A1

- targetSystem: T1, serum purified human Complement Factor D (human, UniProt P00746 26-253)
- T1 construct: Serum purified protein flowed over the captured antibodies; also called CFD; human CFD
- T1 sequence (P00746 26-253): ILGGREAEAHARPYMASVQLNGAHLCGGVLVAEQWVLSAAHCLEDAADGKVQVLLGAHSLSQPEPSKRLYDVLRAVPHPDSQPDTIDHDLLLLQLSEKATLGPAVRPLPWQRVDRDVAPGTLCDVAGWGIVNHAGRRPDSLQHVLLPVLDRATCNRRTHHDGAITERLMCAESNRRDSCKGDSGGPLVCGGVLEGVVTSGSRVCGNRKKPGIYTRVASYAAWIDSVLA
- measurementProtocol: SPR Biacore, antibody on protein A chip, single cycle kinetics, 37 C;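 also: antibodies captured on the protein A surface to roughly 70 RU in HBS-EP+ buffer, with rate and affinity constants fitted using BIAevaluation software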
observationType: kon (M⁻¹ s⁻¹)

[[record]]
binder = "31S54I59D / 32W60W101V (antibody, V domains shown, KCD119 TAF variant; full antibody captured on protein A) VH: EVQLVESGGGLVQPGGSLRLSCAASGYTFTSYYMNWVRQAPGKGLEWIGDINPITGDTDYNADFKRRFTFSLDTSKSTAYLQMNSLRAEDTAVYYCTREGPSFAYWGQGTLVTVSS VL: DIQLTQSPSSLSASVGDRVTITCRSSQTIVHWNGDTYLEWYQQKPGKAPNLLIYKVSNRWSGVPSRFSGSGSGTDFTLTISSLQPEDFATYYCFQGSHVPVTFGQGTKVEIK"
observationtype = "kon"
testresult = "6.55e+06"

[[record]]
binder = "54V59D / 32W50I101V (antibody, V domains shown, KCD119 TAF variant; full antibody captured on protein A) VH: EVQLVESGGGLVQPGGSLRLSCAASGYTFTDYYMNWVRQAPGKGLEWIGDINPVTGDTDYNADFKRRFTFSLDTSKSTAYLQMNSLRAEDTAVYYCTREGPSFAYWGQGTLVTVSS VL: DIQLTQSPSSLSASVGDRVTITCRSSQTIVHWNGDTYLEWYQQKPGKAPILLIYKVSNRFSGVPSRFSGSGSGTDFTLTISSLQPEDFATYYCFQGSHVPVTFGQGTKVEIK"
observationtype = "kon"
testresult = "1.37e+07"

[[record]]
binder = "31S54I59D84T / 32W60W101V (antibody, V domains shown, KCD119 TAF variant; full antibody captured on protein A) VH: EVQLVESGGGLVQPGGSLRLSCAASGYTFTSYYMNWVRQAPGKGLEWIGDINPITGDTDYNADFKRRFTFSLDTSKSTAYLQMTSLRAEDTAVYYCTREGPSFAYWGQGTLVTVSS VL: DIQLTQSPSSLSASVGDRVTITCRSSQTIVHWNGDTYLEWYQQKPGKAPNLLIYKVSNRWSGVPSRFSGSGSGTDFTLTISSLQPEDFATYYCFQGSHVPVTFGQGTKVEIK"
observationtype = "kon"
testresult = "7.79e+06"

[[record]]
binder = "54V56V / 101V (antibody, V domains shown, KCD119 TAF variant; full antibody captured on protein A) VH: EVQLVESGGGLVQPGGSLRLSCAASGYTFTDYYMNWVRQAPGKGLEWIGDINPVTVDTSYNADFKRRFTFSLDTSKSTAYLQMNSLRAEDTAVYYCTREGPSFAYWGQGTLVTVSS VL: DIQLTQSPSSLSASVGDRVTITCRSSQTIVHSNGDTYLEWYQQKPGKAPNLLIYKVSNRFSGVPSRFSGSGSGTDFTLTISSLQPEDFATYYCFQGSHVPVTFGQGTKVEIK"
observationtype = "kon"
testresult = "9.69e+06"

[[record]]
binder = "54I59D84T / 32W60W101V (antibody, V domains shown, KCD119 TAF variant; full antibody captured on protein A) VH: EVQLVESGGGLVQPGGSLRLSCAASGYTFTDYYMNWVRQAPGKGLEWIGDINPITGDTDYNADFKRRFTFSLDTSKSTAYLQMTSLRAEDTAVYYCTREGPSFAYWGQGTLVTVSS VL: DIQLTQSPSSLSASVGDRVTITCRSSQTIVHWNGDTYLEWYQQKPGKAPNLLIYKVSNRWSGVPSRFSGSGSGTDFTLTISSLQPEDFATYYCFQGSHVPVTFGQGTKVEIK"
observationtype = "kon"
testresult = "1.41e+07"

[[record]]
binder = "54V59D / 54R101V (antibody, V domains shown, KCD119 TAF variant) VH: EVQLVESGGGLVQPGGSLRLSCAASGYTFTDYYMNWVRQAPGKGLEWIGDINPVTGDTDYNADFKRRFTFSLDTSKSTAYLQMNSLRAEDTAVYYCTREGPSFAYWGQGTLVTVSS VL: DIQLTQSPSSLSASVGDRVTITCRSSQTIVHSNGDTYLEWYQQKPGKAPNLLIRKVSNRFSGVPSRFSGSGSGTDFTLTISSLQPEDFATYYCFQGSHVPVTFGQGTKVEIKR"
observationtype = "kon"
testresult = "2.4e+07"

